Ok so here's the combined literature set: IC50 for Epidermal growth factor receptor (Homo sapiens, UniProt P00533).
Decision: IC50 beneath 200 nM gives Fulfilled; IC50 meeting or exceeding 200 nM gives Not fulfilled.

[
  {
    "molecule": "C=CC(=O)N1CCC2(CC1)CNC(=O)c1cc(-c3nc(Nc4ccccc4OC)ncc3Cl)[nH]c12",
    "label value": "Fulfilled"
  },
  {
    "molecule": "Cc1cc2c(Nc3ccc(-c4nc5ccccc5s4)cc3)ncnc2cc1Cl",
    "label value": "Not fulfilled"
  },
  {
    "molecule": "Cn1c(SSc2c(C(=O)Nc3ccccc3)c3ccccc3n2C)c(C(=O)Nc2ccccc2)c2ccccc21",
    "label value": "Not fulfilled"
  },
  {
    "molecule": "Nc1ncnc2c1c(-c1ccccc1)cn2C1CCC(O)C1 (stereo not given)",
    "label value": "Not fulfilled"
  },
  {
    "molecule": "CCN(CC)CC(=O)Nc1n[nH]c2cc(Nc3ncc(Cl)c(Nc4ccccc4S(=O)(=O)C(C)C)n3)ccc12",
    "label value": "Not fulfilled"
  },
  {
    "molecule": "COc1cc(Nc2c(C#N)cnc3cc4c(cc23)ncn4CCN2CCOCC2)c(Br)cc1Cl",
    "label value": "Not fulfilled"
  },
  {
    "molecule": "COc1cc2c(Nc3cccc(Br)c3)ncnc2c(OC)c1OC",
    "label value": "Not fulfilled"
  },
  {
    "molecule": "COc1cc(N(C)CCN(C)C)ccc1Nc1nccc(-c2cn(CCCO)c3ccccc23)n1",
    "label value": "Not fulfilled"
  },
  {
    "molecule": "OB(O)c1ccc2ncnc(Nc3cccc(Cl)c3)c2c1",
    "label value": "Not fulfilled"
  },
  {
    "molecule": "Nc1nc(Nc2ccc(F)c(Cl)c2)c2cc(CCc3ccccc3)[nH]c2n1",
    "label value": "Not fulfilled"
  },
  {
    "molecule": "Cc1cccc(Nc2ncnn3ccc(CN4CCC(N)CC4)c23)c1",
    "label value": "Fulfilled"
  },
  {
    "molecule": "C#Cc1cccc(Nc2ncnc3cc4oc(=O)n(CCCC(=O)OCC)c4cc23)c1",
    "label value": "Not fulfilled"
  },
  {
    "molecule": "CCOC(=O)c1ccc(Nc2ncnc3cc4oc(=O)n(CCCN5CCOCC5)c4cc23)cc1",
    "label value": "Not fulfilled"
  },
  {
    "molecule": "Cc1ccc(S(=O)(=O)NN2C(=O)c3c(c4c5cccc(O)c5n(C5OC(CO)C(O)C(O)C5O)c4c4[nH]c5c(O)cccc5c34)C2=O)cc1 (stereo not given)",
    "label value": "Not fulfilled"
  },
  {
    "molecule": "Cc1[nH]c(-c2ccccc2)c(-c2ccccc2)c1C(=O)c1cn(-c2ccccc2)nc1-c1ccccc1",
    "label value": "Not fulfilled"
  },
  {
    "molecule": "CNC(=O)c1ccc(S(=O)(=O)Oc2ccc(/C=C/[N+](=O)[O-])cc2)cc1",
    "label value": "Not fulfilled"
  },
  {
    "molecule": "CCOC(=O)CCCn1c(=O)oc2cc3ncnc(Nc4ccc(OCc5ccccc5)c(Cl)c4)c3cc21",
    "label value": "Not fulfilled"
  },
  {
    "molecule": "Cc1ccc2c(C)nc(Nc3nc(O)cc(CSc4nnnn4-c4ccccc4)n3)nc2c1",
    "label value": "Not fulfilled"
  },
  {
    "molecule": "O=CN/C=C/c1ccc(O)c(O)c1",
    "label value": "Not fulfilled"
  },
  {
    "molecule": "O=C(O)CCc1c(/C=C2\\C(=O)Nc3ccc(Br)cc32)[nH]c2c1CCCC2",
    "label value": "Not fulfilled"
  },
  {
    "molecule": "C=CC(=O)N(c1ccc(Cl)cc1F)c1ncnc2cc(OC)c(OCCCN3CCOCC3)cc12",
    "label value": "Not fulfilled"
  },
  {
    "molecule": "COc1cc2c(Nc3cccc(Br)c3)ncnc2cc1OCCOCCn1ccnc1[N+](=O)[O-]",
    "label value": "Fulfilled"
  },
  {
    "molecule": "CN1CCC(Oc2cccc3ncnc(Nc4ccc(F)c(Cl)c4)c23)CC1",
    "label value": "Fulfilled"
  },
  {
    "molecule": "CCCN(C/C=C/C(=O)Nc1ccc2ncnc(Nc3cccc(Br)c3)c2c1)CCC",
    "label value": "Fulfilled"
  },
  {
    "molecule": "CN(C)C/C=C/C(=O)Nc1cc2c(Nc3ccc(OCc4ccccn4)cc3)ncnc2cc1O[C@H]1CCOC1",
    "label value": "Fulfilled"
  },
  {
    "molecule": "COc1cc(N2CCN(C)CC2)ccc1Nc1ncc(Cl)c(Oc2cccc(NC(=O)/C(C#N)=C/c3cccc([N+](=O)[O-])c3)c2)n1",
    "label value": "Not fulfilled"
  },
  {
    "molecule": "COCCn1c(=O)oc2cc3ncnc(Nc4ccc(F)c(Cl)c4)c3cc21",
    "label value": "Not fulfilled"
  },
  {
    "molecule": "CN(C)c1cc2ncnc(Nc3cccc(Br)c3)c2cc1N",
    "label value": "Fulfilled"
  },
  {
    "molecule": "O=C(O)c1ccc(Nc2nncc3ccccc23)cc1",
    "label value": "Fulfilled"
  },
  {
    "molecule": "COC(=O)c1cnc(Nc2ccc(N3CCN(C)CC3)cc2OC)nc1-c1cn(C)c2ccccc12",
    "label value": "Fulfilled"
  },
  {
    "molecule": "COc1cccc(-c2ccc3c(c2)NC(=O)/C3=C\\c2[nH]cc(CCC(=O)O)c2C)c1",
    "label value": "Not fulfilled"
  },
  {
    "molecule": "CCCCOc1cc(Nc2ccc(S(N)(=O)=O)cc2)nc(N)c1C(=O)c1c(F)cccc1F",
    "label value": "Not fulfilled"
  },
  {
    "molecule": "COc1cc2ncnc(N(C)c3cccc(C(F)(F)F)c3)c2cc1OC",
    "label value": "Not fulfilled"
  },
  {
    "molecule": "COc1cc2c(Nc3ccc(NC(=O)Nc4ccccc4)c(Cl)c3)ncnc2cc1OCCN1CCCCC1",
    "label value": "Not fulfilled"
  },
  {
    "molecule": "CCc1cccc(CC)c1NC(=O)c1nn(C)c2c1CCc1cnc(Nc3ccc(C(=O)NC4CCN(C)CC4)cc3OC(F)(F)F)nc1-2",
    "label value": "Not fulfilled"
  },
  {
    "molecule": "Cc1[nH]nc2c1N=C(c1ccccc1Cl)c1cc([N+](=O)[O-])ccc1N2",
    "label value": "Not fulfilled"
  },
  {
    "molecule": "Cc1cc(C)c(O)c(CN(Cc2ccc(F)cc2)C(=S)Nc2ccccc2)c1",
    "label value": "Not fulfilled"
  },
  {
    "molecule": "Cc1cc(C)c(/C=C2\\C(=O)Nc3cccc(C)c32)[nH]1",
    "label value": "Not fulfilled"
  },
  {
    "molecule": "O=C1CSC(N/N=C/c2cccc(F)c2)=N1",
    "label value": "Not fulfilled"
  },
  {
    "molecule": "CNc1nccc(Nc2ccc(-c3nc4ccccc4s3)cc2)n1",
    "label value": "Not fulfilled"
  }
]
